METHOD_DESCRIPTION: Stability in SGF at pH 1.8 at 37 °C incubated for 4 hrs
Attribute: remaining at 4 h
OBSERVATION_TYPE: remaining at 4 h

[
  {
    "GIVEN_SMILES": "CC(C)OC(=O)OCOc1c2c(c3n(c1=O)[C@]1(CC[C@@H]4C[C@@]41CO)N(C)C3=O)CCN(Cc1ccc(F)c(Cl)c1)C2=O",
    "RECORDED_RESULT": "> 98%"
  },
  {
    "GIVEN_SMILES": "C[C@@H](CN1C(=O)c2c3c(c(O)c(=O)n2[C@@]12CC[C@H]1C[C@H]12)C(=O)N(Cc1ccc(F)c(Cl)c1)CC3)OC(=O)[C@@H](N)CCCCN",
    "RECORDED_RESULT": "90%"
  },
  {
    "GIVEN_SMILES": "CC(C)OC(=O)OCOc1c2c(c3n(c1=O)[C@@]1(CC[C@H]4C[C@H]41)N(C[C@H](C)OP(=O)(O)O)C3=O)CCN(Cc1ccc(F)c(Cl)c1)C2=O",
    "RECORDED_RESULT": "> 98%"
  },
  {
    "GIVEN_SMILES": "CC(C)OC(=O)OCOc1c2c(c3n(c1=O)[C@@]1(CC[C@H]4C[C@H]41)N(C[C@H](C)O)C3=O)CCN(Cc1ccc(F)c(Cl)c1)C2=O",
    "RECORDED_RESULT": "> 98%"
  },
  {
    "GIVEN_SMILES": "C[C@@H](CN1C(=O)c2c3c(c(O)c(=O)n2[C@@]12CC[C@H]1C[C@H]12)C(=O)N(Cc1ccc(F)c(Cl)c1)CC3)OP(=O)(O)O",
    "RECORDED_RESULT": "> 98%"
  }
]

---

METHOD_DESCRIPTION: Oral bioavailability in dog
Assay type: ADME, organism-based, Canis lupus familiaris
RUN_CONDITIONS: in vivo
OBSERVATION_TYPE: bioavailability (%)

[
  {
    "GIVEN_SMILES": "CC(C)n1c(C(=O)N(C)C)c2c(c(O)c1=O)C(=O)N(Cc1ccc(F)c(Cl)c1)CC2",
    "RECORDED_RESULT": 44
  }
]

---

METHOD_DESCRIPTION: Protein binding in beagle dog plasma at 2.5 uM incubated for 4 hrs by LC-MS/MS detection based equilibrium dialysis method
Type: ADME, cell-free, Canis lupus familiaris
RUN_CONDITIONS: read-out: PPB (converted)

[
  {
    "GIVEN_SMILES": "CN1C(=O)c2c3c(c(O)c(=O)n2[C@]12CC[C@@H]1C[C@@]12CO)C(=O)N(Cc1ccc(F)c(Cl)c1)CC3",
    "fraction unbound at 4 h, 2.5 µM": 0.014
  },
  {
    "GIVEN_SMILES": "C[C@H](O)CN1C(=O)c2c3c(c(O)c(=O)n2[C@@]12CC[C@H]1C[C@H]12)C(=O)N(Cc1ccc(F)c(Cl)c1)CC3",
    "fraction unbound at 4 h, 2.5 µM": 0.012
  }
]

---

METHOD_DESCRIPTION: Oral bioavailability in beagle dog at 2 mg/kg by LC-MS/MS method
Assay type: ADME, organism-based, Canis lupus familiaris
RUN_CONDITIONS: beagle, in vivo
OBSERVATION_TYPE: bioavailability (%)

[
  {
    "GIVEN_SMILES": "C[C@H](O)CN1C(=O)c2c3c(c(O)c(=O)n2[C@@]12CC[C@H]1C[C@H]12)C(=O)N(Cc1ccc(F)c(Cl)c1)CC3",
    "UNITS_TEXT": "%",
    "RECORDED_RESULT": 42
  }
]
